Record form. Attribute: In vitro activity (%) compared with native peptide, vs Glucagon. Fill in for each entry.
Target: human GCG receptor (human, UniProt P47871 26-477)
Sequence (P47871 26-477): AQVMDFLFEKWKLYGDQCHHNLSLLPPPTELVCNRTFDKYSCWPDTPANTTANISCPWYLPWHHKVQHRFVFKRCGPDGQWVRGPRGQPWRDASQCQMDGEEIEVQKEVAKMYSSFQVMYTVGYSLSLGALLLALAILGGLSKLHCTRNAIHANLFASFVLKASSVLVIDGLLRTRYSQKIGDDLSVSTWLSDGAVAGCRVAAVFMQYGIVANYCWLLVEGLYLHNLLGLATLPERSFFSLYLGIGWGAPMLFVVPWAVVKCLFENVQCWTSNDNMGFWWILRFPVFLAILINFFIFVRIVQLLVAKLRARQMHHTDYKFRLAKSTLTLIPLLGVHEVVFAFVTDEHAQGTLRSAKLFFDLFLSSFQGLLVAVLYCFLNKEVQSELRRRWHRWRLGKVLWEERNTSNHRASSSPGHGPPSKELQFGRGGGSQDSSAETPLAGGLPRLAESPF
Experiment: cell-based or functional assay
Bridge positions count the residues as written; N and C are the ends. Square brackets hold non-standard residues; d marks the D form. Ends that are not written are not given here. Aib = CC(C)(N)C(=O)O
Numbers only here, please. The scale is %.

Memo: H[Aib]QGTFTSDYSKYLCEKRQKEFVQWLLNGGPSSGAPPPSG (bridge 16-20) [triple agonist of SEQ ID NO: 36] , reported In vitro activity (%) compared with native peptide, vs Glucagon: 0.39

Measured In vitro activity (%) compared with native peptide, vs Glucagon of Y[Aib]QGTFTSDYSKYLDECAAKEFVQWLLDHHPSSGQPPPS (bridge 16-20) [triple agonist of SEQ ID NO: 64] : 60.1

In plain terms, H[Aib]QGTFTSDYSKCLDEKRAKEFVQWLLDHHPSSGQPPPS (bridge 16-20) [triple agonist of SEQ ID NO: 65] has a documented In vitro activity (%) compared with native peptide, vs Glucagon of 25.2
